As shown below, each of these compounds has a reported IC50 value.
Tested on: Wnt signaling pathway (Top-Flash reporter gene)
TEST_DESCRIPTION: Top-Flash Wnt reporter gene assay in HEK293T cells with Wnt3a conditioned medium
Format: cell-based
CONDITION_INFO: Homo sapiens, HEK-293T, 6 h, Table 9; HEK293T, Wnt3a conditioned medium, 6 h; read-out: IC50(μM), inhibitory activity on the Wnt signaling pathway
Quick note: give the figure in µM, leave out the unit.

Input C=C1C(=O)C23CC[C@H]1CC2[C@]1(COC(C)=O)CCC[C@@](C)(COC(C)=O)C1[C@H](COS(C)(=O)=O)C3=O (stereo partly shown) . Output IC50: 58.2

Input C=C1C(=O)C23CC[C@@H](CC2[C@]2(COC(=O)c4cccs4)CCC[C@@](C)(COC(=O)c4cccs4)C12)C(=C)C3=O (stereo partly shown) . Output IC50: 7.68

Input C=C1C(=O)C23CC[C@@H](CC2[C@]2(COC(C)=O)CCC[C@@](C)(COC(=O)c4cccs4)C12)C(=C)C3=O (stereo partly shown) . Output IC50: 4.92

Input C=C1C(=O)C23CC[C@@H](CC2[C@@]24CCC[C@@](C)(COS(=O)OC2)C14)C(=C)C3=O (stereo partly shown) . Output IC50: 12.8

Input C=C1C(=O)[C@@]23CC[C@@H](CC2[C@@]24CCC[C@@](C)(COC2=O)C14)C(=C)[C@@H]3O (stereo partly shown) . Output IC50: 8.27

Input C=C1C(=O)[C@]23CC[C@H]1CC2[C@@]12CCC[C@@](C)(COC1=O)C2[C@H](CO)C3=O (stereo partly shown) . Output IC50: 6.89

---

System: SW-480 (human colon cancer cells)
TEST_DESCRIPTION: MTT inhibition of tumor cell growth, SW-480
Assay type: cell-based
CONDITION_INFO: Homo sapiens, SW480, 48 h, Table 6, 7-hydroxyl derivatives and controls, read-out: IC50 SW-480, 7-hydroxyl derivatives
QUANTITY_MEASURED: pIC50
pIC50 here is simply -log10 of the concentration when that concentration is written in mol/L.

MOLECULE	pIC50
C=C1C(=O)C23CC[C@H]1CC2[C@]1(COC(C)=O)CCC[C@@](C)(COC(=O)c2cccs2)C1C[C@H]3O (stereo partly shown) [Compound 70]	5.77
C=C1C(=O)C23CC[C@H]1CC2[C@]1(COS(C)(=O)=O)CCC[C@@](C)(COS(C)(=O)=O)C1C[C@H]3O (stereo partly shown) [Compound 72a]	5.65
C=C1C(=O)[C@]23CC[C@H]1CC2[C@@]12CCC[C@@](C)(COC1)C2C[C@H]3O (stereo partly shown) [Compound 25]	5.39

Proceed to the following item.
Input C=C1C(=O)C23CC[C@H]1CC2[C@]1(COC(=O)CC)CCC[C@@](C)(COC(=O)CC)C1C[C@H]3O (stereo partly shown) [Compound 72c] . Output pIC50: 6.09

---

Tested on: HL-60 (human promyelocytic leukemia cells)
TEST_DESCRIPTION: MTT inhibition of tumor cell growth, HL-60
Type: cell-based
CONDITION_INFO: Table 1, 7-hydroxy derivatives of S-3, 48 h
QUANTITY_MEASURED: IC50 (nM)
Quick note: give the figure in nM, leave out the unit.

Recorded IC50 for [NH2][Pt]([NH2])([Cl])[Cl] [cis-DDP, reference compound] on HL-60 (human promyelocytic leukemia cells) was 1810
